system: plasma levels of free glycerol; experiment: Effect of oral administration on plasma levels of free glycerol in the empty rat; assay type: in vivo, rat (COBS CD (SD) BR male); conditions: 100 mg/kg oral referred to nicotinic acid, 24 h, empty rat
Assign Percent variations of plasma free glycerol with respect to the controls to each entry below.
Answers are plain numbers, in %.

Record excerpt, results attached:
compound="O=C(OC[C@H](OC(=O)c1cccnc1)[C@@H](OC(=O)c1cccnc1)[C@H](OC(=O)c1cccnc1)[C@@H](COC(=O)c1cccnc1)OC(=O)c1cccnc1)c1cccnc1 [SORBINICATE, D-glucitol hexanicotinate]" readoutunits=% resultvalue=-1
compound=O=C(O)c1cccnc1 readoutunits=% resultvalue=-4

Turning to the following compound.
q: # get_value(readout='Percent variations of plasma free glycerol with respect to the controls', item= O=C(N[C@H]1C(OC(=O)c2cccnc2)O[C@H](COC(=O)c2cccnc2)[C@@H](OC(=O)c2cccnc2)[C@@H]1OC(=O)c1cccnc1)c1cccnc1 (stereo partly shown) [GLUN, N-nicotinoyl-glucosamine tetranicotinate] )
a: 0
